# Tested on: MDA-MB-435
# measurementDescription: NCI tumour cell line growth inhibition, 48 h
Where a SMILES comes first, the peptide text is derived from it. [ ]: non-standard residue; d: D form. The star is where a group is joined. ξ: configuration not given here. X6 = FC(F)(F)c1cc(NC(=S)*)cc(C(F)(F)F)c1; ξF = NC(Cc1ccccc1)C(=O)O
Property: TGI; scope: individual compounds

compound: COc1ccc(C2c3cc4c(cc3OC(NNS(=O)(=O)c3ccc(C)cc3)C2C)OCO4)cc1 (stereo unspecified)
TGI: > 100 µM
--
compound: Clc1cc(OC2C3CC4CC(C3)CC2C4)nc(Cl)n1 (stereo unspecified)
TGI: 37.9 µM
--
compound: Cc1cc(=O)[nH]c(NN2C(Cl)C(=O)C2c2ccccc2O)n1 (stereo unspecified)
TGI: > 100 µM
--
compound: Cc1nc2ccccc2c(N)c1-c1cc(C)c2c(C)nc3ccccc3c2n1
TGI: 2.86 µM
--
compound: COc1ccc(CNc2nc(NCc3ccc(OC)c(OC)c3)nc(NC3CCCCC3)n2)cc1
TGI: > 100 µM
--
compound: N=c1n(C(=O)N2CCCC2)c2cc(Cl)ccc2n1C1=NCCN1
TGI: > 100 µM
--
compound: C[C@@]12C[C@@H](c3ccccc3O1)N1CCCCSC1=N2
TGI: > 100 µM
--
compound: COC(=O)[C@@H](NC(=O)CNC(=O)[C@H]1CCCN1C(=O)C(Cc1ccccc1)NC(=S)Nc1cc(C(F)(F)F)cc(C(F)(F)F)c1)C(C)C (stereo partly specified) (X6-[ξF][dP]GV-OMe)
TGI: 8.12 µM
--
compound: CC1=CC2C(O1)C1C(=O)C=CC(=O)C1=CC2[N+](=O)[O-] (stereo unspecified)
TGI: 26.4 µM
--
compound: O=S1(=O)NC(=NCc2c[nH]c3ccccc23)N(c2ccccc2)c2ccncc21
TGI: > 100 µM
--
compound: c1ccc(N=C2SC3=Nc4cccc5cccc(c45)N3C2=Nc2ccccc2)cc1
TGI: > 100 µM
